Target: HIV-1 Env of isolate MGRM-C-014 (subtype C) (HIV-1)
Test: cell-based or functional assay
I'd appreciate it if you could supply IC50 (µg/mL), pseudovirus neutralization values for the items below.

Record excerpt, results attached:
binder	IC50 (µg/mL), pseudovirus neutralization
PGT-123 (antibody, V domains shown) VH: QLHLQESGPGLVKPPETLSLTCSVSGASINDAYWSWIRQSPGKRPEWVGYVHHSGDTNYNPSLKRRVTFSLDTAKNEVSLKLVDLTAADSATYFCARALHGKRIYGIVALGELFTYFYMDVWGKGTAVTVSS VL: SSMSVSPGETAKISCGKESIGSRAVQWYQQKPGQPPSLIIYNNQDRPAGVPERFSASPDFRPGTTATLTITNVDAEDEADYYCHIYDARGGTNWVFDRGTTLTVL	1 µg/mL
PGT-127 (antibody, V domains shown) VH: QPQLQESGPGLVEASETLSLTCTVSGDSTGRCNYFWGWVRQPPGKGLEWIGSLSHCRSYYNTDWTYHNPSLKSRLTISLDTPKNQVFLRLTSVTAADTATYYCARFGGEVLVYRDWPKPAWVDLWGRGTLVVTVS VL: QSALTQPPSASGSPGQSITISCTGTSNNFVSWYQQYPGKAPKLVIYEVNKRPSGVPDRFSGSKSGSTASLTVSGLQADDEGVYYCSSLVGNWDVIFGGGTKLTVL	> 50 µg/mL
PGT-125 (antibody, V domains shown) VH: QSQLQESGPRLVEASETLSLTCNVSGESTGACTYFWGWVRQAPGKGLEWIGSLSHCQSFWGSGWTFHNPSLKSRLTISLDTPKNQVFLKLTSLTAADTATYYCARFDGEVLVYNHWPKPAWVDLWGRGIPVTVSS VL: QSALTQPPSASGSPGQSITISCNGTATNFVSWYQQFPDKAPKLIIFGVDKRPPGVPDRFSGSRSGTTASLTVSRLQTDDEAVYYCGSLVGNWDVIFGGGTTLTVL	> 50 µg/mL

API: the following record is the query input.
Query: IC50 (µg/mL), pseudovirus neutralization lookup needed for PGT-126 (antibody, V domains shown) VH: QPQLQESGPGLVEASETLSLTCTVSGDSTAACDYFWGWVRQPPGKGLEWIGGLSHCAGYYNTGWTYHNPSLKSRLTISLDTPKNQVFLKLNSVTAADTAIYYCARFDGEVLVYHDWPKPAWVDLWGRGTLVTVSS VL: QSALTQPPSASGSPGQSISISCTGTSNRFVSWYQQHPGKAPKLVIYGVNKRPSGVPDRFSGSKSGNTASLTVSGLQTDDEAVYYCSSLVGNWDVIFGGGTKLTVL , thanks.
Response: > 50 µg/mL
